target: histone deacetylase activity (HeLa nuclear extract); construct: Histone deacetylase activity from crude nuclear extract derived from HeLa cells was used for screening; test: Histone deacetylase activity (Biomol Fluor de Lys HDAC fluorescent activity assay); conditions: Fluor de Lys substrate
pIC50: −log10 of the molar value.
Measurement Kind: pIC50

Observe how each entry below is paired with its result.
# Compound, Data Value
records = [
    ("CC(C)C[C@H](NC1CCN(c2ncc(C(=O)NO)cn2)CC1)C(=O)OC1CCCC1", "6.00 to 7.00"),
    ("O=C(NO)c1cnc(N2CCC(CNCc3ccc(CN[C@H](C(=O)O)C4CCCCC4)cc3)CC2)nc1", "> 7.00"),
    ("O=C(NO)c1cnc(N2CCC(CNCC3CCC(CN[C@H](C(=O)OC4CCCC4)C4CCCCC4)CC3)CC2)nc1 (some centres unmarked)", "6.00 to 7.00"),
]

For each of the items listed, what is its pIC50?
1. CC(C)C[C@H](NC1CCN(c2ncc(C(=O)NO)cn2)CC1)C(=O)O
2. O=C(NO)c1ccc(N2CCC(CN[C@H](C(=O)OC3CCCC3)C3CCCCC3)CC2)cc1
3. O=C(NO)c1cnc(N2CCC(CN[C@H](C(=O)OC3CCCC3)C3CCCCC3)CC2)nc1
4. O=C(NO)c1cnc(N2CC3C(CN[C@H](C(=O)OC4CCCC4)C4CCCCC4)C3C2)nc1 (some centres unmarked)
5. O=C(NO)c1cnc(N2CCC(CNCc3ccc(CN[C@H](C(=O)OC4CCCC4)C4CCCCC4)cc3)CC2)nc1
6. O=C(NO)c1cnc(N2CCC(NCc3ccc(CN[C@H](C(=O)OC4CCCC4)c4ccccc4)cc3)CC2)nc1 [Example 32]

Output:
6.00 to 7.00
< 6.00
> 7.00
> 7.00
> 7.00
6.00 to 7.00

For the 4 compounds below, give their pIC50 values.
1. O=C(NO)c1cnc(N2CCC(NCc3ccc(CN[C@H](C(=O)OC4CCCC4)c4ccccc4)cc3)CC2)nc1 [Example 30]
2. O=C(NO)c1ccc(N2CCC(CN[C@H](C(=O)O)C3CCCCC3)CC2)cc1
3. CC(C)C[C@H](NC1CCN(c2ccc(C(=O)NO)cc2)CC1)C(=O)O
4. CC(C)C[C@H](NCc1ccc(CNC2CCN(c3ncc(C(=O)NO)cn3)CC2)cc1)C(=O)O

Output:
> 7.00
< 6.00
< 6.00
6.00 to 7.00

// each compound listed below needs its pIC50
1. O=C(NO)c1cnc(N2CCC(CN[C@H](C(=O)O)C3CCCCC3)CC2)nc1
2. CC(C)C[C@H](NC1CCN(c2ccc(C(=O)NO)cc2)CC1)C(=O)OC1CCCC1
3. O=C(NO)c1cnc(N2CCC(CNCC3CCC(CN[C@H](C(=O)O)C4CCCCC4)CC3)CC2)nc1 (some centres unmarked)
4. O=C(NO)c1cnc(N2CCC(NCc3ccc(CN[C@H](C(=O)OC4CCCC4)c4ccccc4)cc3)CC2)nc1 [Example 33]
5. O=C(NO)c1cnc(N2CC3C(CN[C@H](C(=O)O)C4CCCCC4)C3C2)nc1 (some centres unmarked)
6. O=C(NO)c1cnc(N2CCC(NCc3ccc(CN[C@H](C(=O)OC4CCCC4)c4ccccc4)cc3)CC2)nc1 [Example 31]
7. CC(C)C[C@H](NCc1ccc(CNC2CCN(c3ncc(C(=O)NO)cn3)CC2)cc1)C(=O)OC1CCCC1
8. O=C(NO)c1ccc(N2CCC(CNCC3CCC(CN[C@H](C(=O)OC4CCCC4)C4CCCCC4)CC3)CC2)cc1 (some centres unmarked)

Output:
1: > 7.00; 2: < 6.00; 3: > 7.00; 4: > 7.00; 5: 6.00 to 7.00; 6: 6.00 to 7.00; 7: > 7.00; 8: < 6.00

Need pIC50 for each of these compounds.
1. O=C(NO)c1cnc(N2CCC(NCc3ccc(CN[C@H](C(=O)OC4CCCC4)c4ccccc4)cc3)CC2)nc1 [Example 34]
2. O=C(NO)c1cnc(N2CC3C(CNCc4ccc(CN[C@H](C(=O)OC5CCCC5)c5ccccc5)cc4)C3C2)nc1 (some centres unmarked)
3. O=C(NO)c1ccc(N2CCC(CNCC3CCC(CN[C@H](C(=O)O)C4CCCCC4)CC3)CC2)cc1 (some centres unmarked)

Output:
1: > 7.00; 2: > 7.00; 3: < 6.00

Your task in this section: give pIC50 for each listed record.
1. O=C(NO)c1ccc(N2CCC(CNCc3ccc(CN[C@H](C(=O)OC4CCCC4)C4CCCCC4)cc3)CC2)cc1
2. O=C(NO)c1cnc(N2CCC(NCc3ccc(CN[C@H](C(=O)OC4CCCC4)c4ccccc4)cc3)CC2)nc1 [Example 29]

Output:
1: < 6.00; 2: > 7.00
